# measurement.protocol: Serum antibiotic concentration in mice after intraperitoneal dose (microbiological assay)
# Assay type: in vivo
# experimental.context: hairless (immunocompetent), mouse, serum, ip, daptomycin 25 mg/kg intraperitoneally, single dose, bioassay with Micrococcus luteus, detection limit 0.5 μg/ml, read-out: serum concentration at 30 minutes
assay.readout: level at 0.5 h (µg/mL)
A number alone suffices; assume µg/mL.

query: What value of measured level at 0.5 h is listed for "CCCCCCCCCC(=O)N[C@@H](Cc1c[nH]c2ccccc12)C(=O)N[C@H](CC(N)=O)C(=O)N[C@@H](CC(=O)O)C(=O)N[C@@H]1C(=O)NCC(=O)N[C@@H](CCCN)C(=O)N[C@@H](CC(=O)O)C(=O)N[C@H](C)C(=O)N[C@@H](CC(=O)O)C(=O)NCC(=O)N[C@H](CO)C(=O)N[C@@H]([C@H](C)CC(=O)O)C(=O)N[C@@H](CC(=O)c2ccccc2N)C(=O)O[C@@H]1C" ?
result: 127
